# Test system: Ruminococcus gnavus DSM 108212
# Protocol Text: fold change of Tryptamine concentration vs plate DMSO controls (fold change (ratio)); higher = more amine produced, active = hit call of the paper (significant change in both replicates, either direction)
# Condition Context: incubation time: 27 h, anaerobic, 37 °C
Where a name gives a salt, the structure may show the parent alone.
Observable: fold change of Tryptamine concentration
API note: the answer field is a bare number with no unit suffix.

// below: answered compounds
>  <Compound>
CCCN(CCC)C(=O)C(CCC(=O)O)NC(=O)c1ccccc1 (stereo not drawn) [Proglumide] (20 µM)

>  <Readout Number>
1.06

$$$$
>  <Compound>
CCC(NC(C)C)C(O)c1ccc(O)c2[nH]c(=O)ccc12 (stereo not drawn) [Procaterol hydrochloride] (20 µM)

>  <Readout Number>
1.1

$$$$
>  <Compound>
CSc1nc2cc(Cl)c(Oc3cccc(Cl)c3Cl)cc2[nH]1 [Triclabendazole] (20 µM)

>  <Readout Number>
0.514

$$$$
>  <Compound>
CC1CCc2cc(F)cc3c(=O)c(C(=O)O)cn1c23 (stereo not drawn) [Flumequine] (20 µM)

>  <Readout Number>
0.989

$$$$

Prompt line: Name the reported fold change of Tryptamine concentration value associated with the compound CC(=O)N(CC(O)CN(C(C)=O)c1c(I)c(C(=O)NCC(O)CO)c(I)c(C(=O)NCC(O)CO)c1I)c1c(I)c(C(=O)NCC(O)CO)c(I)c(C(=O)NCC(O)CO)c1I (stereo not drawn) [Iodixanol] (20 µM)
Response line: 0.886

Prompt line: Continue with CCCCNC(=O)NS(=O)(=O)c1ccc(C)cc1 [Tolbutamide] (20 µM)
Response line: 1.01

Prompt line: Continue with O=c1[nH]cc(F)c(=O)[nH]1 [5-fluorouracil] (20 µM)
Response line: 0.917

Prompt line: Continue with OCC1(O)OC[C@@H](O)[C@@H](O)[C@H]1O (stereo partly drawn) [Psicose] (50 µM)
Response line: 0.992

====

# Tested on: Escherichia coli IAI1
# Protocol Text: growth (OD595) fold change vs plate DMSO controls (fold change (ratio)); higher = more growth
# Condition Context: incubation time: 27 h, anaerobic, 37 °C
Where a name gives a salt, the structure may show the parent alone.
Observable: growth
API note: the answer field is a bare number with no unit suffix.

// below: answered compounds
>  <Compound>
CC(C)(C)c1ccc(C(O)CCCN2CCC(C(O)(c3ccccc3)c3ccccc3)CC2)cc1 (stereo not drawn) [Terfenadine] (20 µM)

>  <Readout Number>
1

$$$$
>  <Compound>
O=c1[nH]cnc2c1ncn2[C@@H]1O[C@H](CO)[C@@H](O)[C@H]1O [Inosine] (20 µM)

>  <Readout Number>
1.01

$$$$
>  <Compound>
N=C(N)NCCN1CCCCCCC1 [Guanethidine sulfate] (20 µM)

>  <Readout Number>
0.988

$$$$

Prompt line: Name the reported growth value associated with the compound CN(C)CCc1c[nH]c2ccc(C[C@H]3COC(=O)N3)cc12 [Zolmitriptan] (20 µM)
Response line: 1.06

Prompt line: Continue with OCCN1CCN(CC/C=C2/c3ccccc3Sc3ccc(C(F)(F)F)cc32)CC1 [Flupentixol dihydrochloride cis-(Z)] (20 µM)
Response line: 0.959

Prompt line: Continue with COc1ccc2c(c1)N(C[C@H](C)CN(C)C)c1ccccc1S2 [Methotrimeprazine maleate salt] (20 µM)
Response line: 1.12

Prompt line: Continue with Cn1nnc2c(C(N)=O)ncn2c1=O [Temozolomide] (20 µM)
Response line: 0.982

Prompt line: Continue with COc1ncnc(NS(=O)(=O)c2ccc(N)cc2)c1OC [Sulfadoxine] (20 µM)
Response line: 1.01
